Reference source: patent US8946273B2

Measured EC50 of individual entries
system: mutant HIV reverse transcriptases (Human immunodeficiency virus type 1, UniProt P12497, Y775L, cells depend on it)

CCc1ccc(-n2c(SCC(=O)Nc3ccc(C(=O)O)cc3Cl)nnc2C(F)(F)F)c2ccccc12: > 100 nM
O=C(CSc1nnc(Br)n1-c1ccc(C2CC2)c2ccccc12)Nc1ccc(C(=O)O)cc1Cl [compound 10]: < 50 nM
N#Cc1cccc2c(-n3c(SCC(=O)Nc4ccc(S(N)(=O)=O)cc4Cl)nnc3C(F)F)cccc12: > 100 nM
Cc1cc(C2CC2)cc(Cl)c1-n1c(Br)nnc1SCC(=O)Nc1ccc(S(N)(=O)=O)cc1Cl: < 50 nM
Cc1cc(C2CC2)cc(C)c1-n1c(Br)nnc1SCC(=O)Nc1ccc(C(=O)O)cc1Cl: > 100 nM

Quickly give me recorded EC50 for COc1ccc2cccc(-n3c(Br)nnc3SCC(=O)Nc3ccc(C(=O)O)cc3Cl)c2c1
< 50 nM

Read off the recorded EC50 for CCc1ccc(-n2c(SCC(=O)Nc3ccc(S(N)(=O)=O)cc3Cl)nnc2C(F)F)c2c1CCCC2
< 50 nM

State, in one line, measured EC50 of CCc1ccc(-n2c(C)nnc2SCC(=O)Nc2ccc(S(N)(=O)=O)cc2Cl)c2c1CCCC2
< 50 nM

###

system: mutant HIV reverse transcriptases (Human immunodeficiency virus type 1, UniProt P12497, Y775L, cells depend on it)
pEC50: −log10 of the molar value.
recorded endpoint: pEC50

Sample answers from the record:
CCc1ccc(-n2c(Br)nnc2SCC(=O)Nc2ccc(C(=O)O)cc2C)c2ccccc12 [compound 6]: < 7.00
NS(=O)(=O)c1ccc(NC(=O)CSc2nnc(C(F)F)n2-c2ccc(C3CC3)c3ccccc23)c(Cl)c1 [compound 44]: > 7.30
Cc1ccc2c(C)cc(C)c(-n3c(SCC(=O)Nc4ccc(S(N)(=O)=O)cc4Cl)nnc3C(F)F)c2n1 [compound 63]: > 7.30

Now look at this one.
Let me know recorded pEC50 for CCc1ccc(-n2c(SCC(=O)Nc3ccc(C(=O)O)cc3C)nnc2C(F)F)c2ccccc12 [compound 3] , thanks.
< 7.00

###

system: mutant HIV reverse transcriptases (Human immunodeficiency virus type 1, UniProt P12497, Y775L, cells depend on it)
Type: cell-based
recorded endpoint: EC50

Previously resolved entries follow.
CCc1ccc(-n2c(CF)nnc2SCC(=O)Nc2ccc(S(N)(=O)=O)cc2C)c2ccccc12: > 100 nM
COc1cccc2c(-n3c(Br)nnc3SCC(=O)Nc3ccc(C(=O)O)cc3Cl)cccc12: > 100 nM
Cc1cc(S(N)(=O)=O)ccc1NC(=O)CSc1nnc(Br)n1-c1ccc(F)c2ccccc12: > 100 nM

Given CCc1ccc(-n2c(Br)nnc2SCC(=O)Nc2ccc(C(=O)N3CCC(CN)CC3)cc2Cl)c2ccccc12 , respond with its EC50.
< 50 nM

Assign EC50 to the following record: CCc1ccc(-n2c(Br)nnc2SCC(=O)Nc2ccc(C(=O)NCC(OC)OC)cc2Cl)c2ccccc12
< 50 nM

Answer with the recorded EC50 of NS(=O)(=O)c1ccc(NC(=O)CSc2nnc(C(F)F)n2-c2ccc(C3CCC3)c3ccccc23)c(Cl)c1 [compound 69] only.
< 50 nM

Using known records, supply EC50 for Cc1cc(C)c2ccccc2c1-n1c(SCC(=O)Nc2ccc(S(N)(=O)=O)cc2Cl)nnc1C(F)(F)F [compound 84]
< 50 nM
